Recorded values, source patent US20220380371A1.

Attribute: pIC50
Test system: MV4-11 cells
assay-notes: MV4-11 6-Day Cell Growth CTG (CellTiter-Glo) Assay
Type: cell-based
condition-description: Homo sapiens, MV4-11, 144 h, MV4-11 cell growth CellTiter-Glo, 6 days
pIC50: −log10 of the molar value.

INSERT INTO measurements (molecule, measurement) VALUES
  ('Nc1ncnc2c1ncn2Cc1c(N2CC[C@](N)(C(=O)NCC3CC3(F)F)C2)ccc(F)c1C(F)(F)F (stereo partly shown) [Example 122]', '> 5.70'),
  ('Nc1ncnc2c1ncn2Cc1c(Br)cc(Cl)cc1N1CC[C@](N)(CO)C1 [Example 19]', '5.52 to 5.70'),
  ('N#Cc1c(Cl)ccc(N2CC[C@](N)(C(=O)NC3CC3)C2)c1Cn1cnc2c(N)ncnc21 [Example 104]', '> 5.70');

Then there is this molecule:
# pIC50 measured on MV4-11 cells for item Nc1ncnc2c1ncn2Cc1c(N2CC[C@](N)(C(=O)NCCc3c[nH]cn3)C2)ccc(F)c1C(F)(F)F [Example 121] = > 5.70
